Form field: pEC50 (one value per entry).
# Target: N-formyl peptide receptor 2 (Homo sapiens, UniProt P25090)
# Sequence (P25090 whole entry): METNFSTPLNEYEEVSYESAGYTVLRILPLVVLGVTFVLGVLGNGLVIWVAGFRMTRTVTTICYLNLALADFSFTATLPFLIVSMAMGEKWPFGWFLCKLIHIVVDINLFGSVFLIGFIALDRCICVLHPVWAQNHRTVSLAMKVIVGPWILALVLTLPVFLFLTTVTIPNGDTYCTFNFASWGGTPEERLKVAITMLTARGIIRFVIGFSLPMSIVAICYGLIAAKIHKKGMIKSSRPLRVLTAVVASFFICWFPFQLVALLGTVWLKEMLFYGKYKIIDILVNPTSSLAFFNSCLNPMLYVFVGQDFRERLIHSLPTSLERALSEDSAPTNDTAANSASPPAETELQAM
# Test Summary: Agonist activity at FPR2 in human PMN assessed as stimulation of Ca2+ influx measured every 5 secs for 240 secs by FLIPR assay in presence of probenecid
# Format: functional
# Test Parameters: read-out: EC50
pEC50: −log10 of the molar value.
Readout: pEC50

- Test Smiles: "COc1ccc(NC(=O)N[C@H](Cc2c[nH]c3ccccc23)C(=O)NCC2(c3ccccn3)CCCCC2)cc1"
  Readout: "pEC50"
  Value Measured: 6.31
- Test Smiles: "COc1ccc(NC(=O)N[C@@H](Cc2c[nH]c3ccccc23)C(=O)NCC2(c3ccccn3)CCCCC2)cc1"
  Readout: "pEC50"
  Value Measured: 6.35
- Test Smiles: "COc1ccc(NC(=O)N[C@@H](Cc2c[nH]c3ccccc23)C(=O)NCC2(c3cccnc3)CCCCC2)cc1"
  Readout: "pEC50"
  Value Measured: 6.57
- Test Smiles: "COc1ccc(NC(=O)N[C@H](Cc2c[nH]c3ccccc23)C(=O)NCC2(c3ccccc3)CCCCC2)cc1"
  Readout: "pEC50"
  Value Measured: 6.01
- Test Smiles: "COc1ccc(NC(=O)N[C@@H](Cc2c[nH]c3ccccc23)C(=O)NCC2(c3ccnc(F)c3)CCCCC2)cc1"
  Readout: "pEC50"
  Value Measured: 6.18
- Test Smiles: "COc1ccc(NC(=O)N[C@@H](Cc2c[nH]c3ccccc23)C(=O)NCC2(c3ccc(F)cc3)CCCCC2)cc1"
  Readout: "pEC50"
  Value Measured: 5.96

Values from ChEMBL document CHEMBL3588779
